Origin of values: the Human Domainome abundance scans (Beltran et al. 2025)

B1: MEF2-activating motif and SAP domain-containing transcriptional regulator, residues 170 to 204; numbered along this chain, Q6ZN01 (parent)
chain: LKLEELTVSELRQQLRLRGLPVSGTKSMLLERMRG

# Variants of: B1
# assay.method.text: abundance fitness (aPCA) (normalised: wild type 0, dead -1); higher = more abundant; growth selection in yeast, the domain comes from the species named
# test.conditions: Homo sapiens
reported.endpoint: abundance fitness
One number for each entry.

Examples with their reported abundance fitness follow.
LKLEEWTVSELRQQLRLRGLPVSGTKSMLLERMRG [L6W]; -0.175
LKLEELTVSELRQQLRLRGLPVSGTKSMLLERCRG [M33C]; -0.235
LKLEELTVSELRDQLRLRGLPVSGTKSMLLERMRG [Q13D]; -0.075

Kindly give each listed record's abundance fitness.
1. LKLEELTVSEYRQQLRLRGLPVSGTKSMLLERMRG [L11Y]
2. LKLEELTVSELRQQLRLRVLPVSGTKSMLLERMRG [G19V]
3. LKLEQLTVSELRQQLRLRGLPVSGTKSMLLERMRG [E5Q]
4. LKLEELTVSELRQQLRLRGLRVSGTKSMLLERMRG [P21R]
5. LKLEELTVSALRQQLRLRGLPVSGTKSMLLERMRG [E10A]
6. LKLEELTVSELRQQLRLRGLPVSGTKSMLLERMSG [R34S]
7. LKLEELTVSELRQQLRLRGLPVSGTKVMLLERMRG [S27V]

output:
1. -0.497
2. -1.02
3. -0.306
4. -0.39
5. -0.425
6. -0.064
7. -0.349
